# Test system: melanin
# method.summary: in vitro
# assay.setup: pig, pH 7.4
Label key: Met means fraction unbound at 20 h, 1 µM under 0.3; Not met means fraction unbound at 20 h, 1 µM of 0.3 or more.

Recorded results for 5 molecules are shown here.
[[record]]
molecule = "C[C@H]1COc2c(N3CCN(C)CC3)c(F)cc3c(=O)c(C(=O)O)cn1c23 [Levofloxacin]"
tested_system = "melanin"
class_name = "Met"

[[record]]
molecule = "CCN(CC)CCCC(C)Nc1ccnc2cc(Cl)ccc12 (stereo not drawn) [Chloroquine]"
tested_system = "melanin"
class_name = "Met"

[[record]]
molecule = "COc1cc2nc(N3CCN(C(=O)C4CCCO4)CC3)nc(N)c2cc1OC (stereo not drawn) [Terazosin]"
tested_system = "melanin"
class_name = "Met"

[[record]]
molecule = "COc1ccc(Cc2nccc3cc(OC)c(OC)cc23)cc1OC [Papaverine]"
tested_system = "melanin"
class_name = "Met"

[[record]]
molecule = "CC(C)(C)NC[C@H](O)COc1nsnc1N1CCOCC1 [Timolol]"
tested_system = "melanin"
class_name = "Not met"


Continue with the next molecule.
Q. For this molecule, is fraction unbound at 20 h, 1 µM lower than 0.3? CC(C)NCC(O)COc1cccc2ccccc12 (stereo not drawn) [Propranolol]
A. Not met

====

# System: melanin
# method.summary: Prediction of unbound ligand fraction in vivo (human RPE-choroid)
# assay.setup: human, human RPE-choroid (predicted), 34.8 mg/mL melanin
Strictly below 0.009 in fraction unbound at 1 µM: YES. Otherwise: NO.

Take a look at these entries with their results.
[[record]]
compound = "COc1cc2nc(N3CCN(C(=O)C4CCCO4)CC3)nc(N)c2cc1OC (stereo not drawn) [Terazosin]"
class_name = "YES"

[[record]]
compound = "C[C@H]1COc2c(N3CCN(C)CC3)c(F)cc3c(=O)c(C(=O)O)cn1c23 [Levofloxacin]"
class_name = "YES"

[[record]]
compound = "CC(C)(C)NC[C@H](O)COc1nsnc1N1CCOCC1 [Timolol]"
class_name = "NO"


Q. fraction unbound at 1 µM strictly < 0.009 for this compound? CC(C)(C)NCC(O)COc1cccc2c1CC(O)C(O)C2 (stereo not drawn) [Nadolol]
A. NO

Q. Follow-up entry: CCN(CC)CCCC(C)Nc1ccnc2cc(Cl)ccc12 (stereo not drawn) [Chloroquine]
A. YES

====

# method.summary: Label-free microscale thermophoresis (MST) melanin binding assay
# assay.setup: Table S2; raw fluorescence counts before heating, 60% excitation power; read-out: Kd, initial fluorescence mode (converted)
assay.readout: Kd (µM)
One number for each entry, in µM.

[[record]]
compound = "CN(Cc1cnc2nc(N)nc(N)c2n1)c1ccc(C(=O)N[C@@H](CCC(=O)O)C(=O)O)cc1 [Methotrexate]"
assay_readout = "Kd"
reported_result = 3500

[[record]]
compound = "COc1cc2nc(N3CCN(C(=O)C4CCCO4)CC3)nc(N)c2cc1OC (stereo not shown)"
assay_readout = "Kd"
reported_result = 29

[[record]]
compound = "COc1ccc(Cc2nccc3cc(OC)c(OC)cc23)cc1OC"
assay_readout = "Kd"
reported_result = 28


Please turn your attention to the following entry.
Q. What does the data say about its Kd? Entry: CC(C)(C)NCC(O)COc1cccc2c1CC(O)C(O)C2 (stereo not shown)
A. 200

====

What Target Capacity ± SE, traditional method (Sips isotherm) was measured for each of the following?
# method.summary: Traditional melanin binding assay (equilibrium binding, Sips isotherm)
# assay.setup: Bmax multiplied with 0.5 mg/mL melanin concentration of the MST assay
For clarity, give the value followed by its unit.

# count of solved cases: 3
[[record]]
molecule = "CC(C)NCC(O)COc1cccc2ccccc12 (stereo not shown)"
reported_result = "88 ± 30 µM"

[[record]]
molecule = "COc1cc2nc(N3CCN(C(=O)C4CCCO4)CC3)nc(N)c2cc1OC (stereo not shown)"
reported_result = "56 ± 6.5 µM"

[[record]]
molecule = "CC(C)(C)NCC(O)COc1cccc2c1CC(O)C(O)C2 (stereo not shown)"
reported_result = "34 ± 12 µM"


Please state Target Capacity ± SE, traditional method (Sips isotherm) for every molecule in the list that follows.
1. C[C@H]1COc2c(N3CCN(C)CC3)c(F)cc3c(=O)c(C(=O)O)cn1c23
2. CCN(CC)CCCC(C)Nc1ccnc2cc(Cl)ccc12 (stereo not shown)
3. CC(C)(C)NC[C@H](O)COc1nsnc1N1CCOCC1
4. COc1ccc(Cc2nccc3cc(OC)c(OC)cc23)cc1OC

A.
1: 36 ± 5.5 µM; 2: 190 ± 20 µM; 3: 19.5 ± 3 µM; 4: 33 ± 4 µM

The reported measurements were obtained from paper PMC7355663.
